Target: UGT2B15 (Homo sapiens, UniProt P54855)
Construct: purchased Corning Life Sciences
Sequence (P54855 24-530): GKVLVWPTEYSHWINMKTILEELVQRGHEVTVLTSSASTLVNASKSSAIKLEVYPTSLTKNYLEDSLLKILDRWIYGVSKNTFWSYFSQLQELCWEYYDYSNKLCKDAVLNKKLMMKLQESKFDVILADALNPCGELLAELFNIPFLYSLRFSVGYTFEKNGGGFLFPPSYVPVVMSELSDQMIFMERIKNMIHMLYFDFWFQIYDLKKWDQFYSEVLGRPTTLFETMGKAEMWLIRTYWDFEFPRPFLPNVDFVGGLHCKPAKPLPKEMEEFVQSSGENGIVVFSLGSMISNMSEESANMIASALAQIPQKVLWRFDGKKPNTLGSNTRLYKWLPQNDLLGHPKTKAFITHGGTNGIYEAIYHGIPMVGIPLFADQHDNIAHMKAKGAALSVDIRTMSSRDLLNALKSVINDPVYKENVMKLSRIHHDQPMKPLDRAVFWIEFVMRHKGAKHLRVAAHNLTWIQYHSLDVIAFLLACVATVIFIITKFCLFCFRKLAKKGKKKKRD
Assay: Inhibition of UGT2B15 (4-methylumbelliferyl glucuronidation) in recombinant human UGT2B15 supersomes
Type: in vitro ADME

{"columns": ["smiles code", "IC50"],
 "data": [
  ["CC1=C(/C=C/C(C)=C/C=C/C(C)=C/C=C/C=C(C)/C=C/C=C(C)/C=C/C2=C(C)C[C@@H](O)CC2(C)C)C(C)(C)C[C@H](O)C1", "> 50 µM"],
  ["CC1=C[C@H](O)CC(C)(C)[C@H]1/C=C/C(C)=C/C=C/C(C)=C/C=C/C=C(C)/C=C/C=C(C)/C=C/C1=C(C)C[C@@H](O)CC1(C)C", "> 50 µM"],
  ["CC1=C(/C=C/C(C)=C/C=C/C(C)=C/C=C/C=C(C)/C=C/C=C(C)/C=C/C2=C(C)C(=O)[C@@H](O)CC2(C)C)C(C)(C)C[C@H](O)C1=O", "> 50 µM"]
]}

----------
Molecular target: UGT1A4 (Homo sapiens, UniProt P22310)
Sequence (P22310 29-534): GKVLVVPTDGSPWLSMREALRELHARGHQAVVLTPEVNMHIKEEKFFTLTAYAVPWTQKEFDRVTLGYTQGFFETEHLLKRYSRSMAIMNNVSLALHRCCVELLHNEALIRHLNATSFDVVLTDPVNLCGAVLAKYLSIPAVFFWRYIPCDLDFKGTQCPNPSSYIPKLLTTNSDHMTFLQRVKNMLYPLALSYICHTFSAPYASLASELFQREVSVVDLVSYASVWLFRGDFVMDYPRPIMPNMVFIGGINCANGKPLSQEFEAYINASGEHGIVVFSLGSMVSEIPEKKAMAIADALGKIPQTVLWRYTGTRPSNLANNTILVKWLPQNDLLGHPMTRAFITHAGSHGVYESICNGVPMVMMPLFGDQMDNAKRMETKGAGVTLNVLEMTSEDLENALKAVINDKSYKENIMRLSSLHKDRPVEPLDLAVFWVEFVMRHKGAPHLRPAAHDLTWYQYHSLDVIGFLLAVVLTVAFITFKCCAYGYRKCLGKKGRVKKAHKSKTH
endpoint name: IC50 (µM)

{"columns": ["compound", "relation qualifier", "measured value"],
 "data": [
  ["C[C@@H]1CC[C@@]2(OC1)O[C@H]1C[C@H]3[C@@H]4CC[C@H]5C[C@@H](O)CC[C@]5(C)[C@H]4CC(=O)[C@]3(C)[C@H]1[C@@H]2C [Hecogenin, hecogenin, reference compound]", "=", 8.07],
  ["CC1=C[C@H](O)CC(C)(C)[C@H]1/C=C/C(C)=C/C=C/C(C)=C/C=C/C=C(C)/C=C/C=C(C)/C=C/C1=C(C)C[C@@H](O)CC1(C)C [LU, lutein]", "=", 28.7],
  ["CC1=C(/C=C/C(C)=C/C=C/C(C)=C/C=C/C=C(C)/C=C/C=C(C)/C=C/C2=C(C)C(=O)CCC2(C)C)C(C)(C)CCC1=O [CA, canthaxanthin]", ">", 50],
  ["CC1=C(/C=C/C(C)=C/C=C/C(C)=C/C=C/C=C(C)/C=C/C=C(C)/C=C/C2=C(C)C[C@@H](O)CC2(C)C)C(C)(C)C[C@H](O)C1 [ZE, zeaxanthin]", ">", 50],
  ["CC1=C(/C=C/C(C)=C/C=C/C(C)=C/C=C/C=C(C)/C=C/C=C(C)/C=C/C2=C(C)C[C@@H](O)CC2(C)C)C(C)(C)CCC1 [βC, β-cryptoxanthin]", "=", 34.9]
]}

----------
Reported pIC50 is given for each of the following compounds.
Molecular target: UGT1A3 (Homo sapiens, UniProt P35503)
Sequence (P35503 29-534): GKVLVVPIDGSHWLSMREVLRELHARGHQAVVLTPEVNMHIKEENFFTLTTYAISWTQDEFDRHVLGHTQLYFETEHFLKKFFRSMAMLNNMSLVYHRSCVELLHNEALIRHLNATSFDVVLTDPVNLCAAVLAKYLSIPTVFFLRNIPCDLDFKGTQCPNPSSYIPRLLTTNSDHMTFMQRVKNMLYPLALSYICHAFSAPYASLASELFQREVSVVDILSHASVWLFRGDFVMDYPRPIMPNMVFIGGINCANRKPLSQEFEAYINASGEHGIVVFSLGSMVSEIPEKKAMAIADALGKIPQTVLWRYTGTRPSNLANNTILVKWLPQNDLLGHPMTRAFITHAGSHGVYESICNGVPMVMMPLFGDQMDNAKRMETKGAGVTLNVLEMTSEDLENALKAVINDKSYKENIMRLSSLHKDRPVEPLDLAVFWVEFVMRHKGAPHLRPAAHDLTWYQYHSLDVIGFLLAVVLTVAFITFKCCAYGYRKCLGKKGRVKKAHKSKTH
Test: Inhibition of UGT1A3 (chenodeoxycholic acid 24-acyl-β-D-glucuronidation) in human liver microsomes
Conditions: read-out: IC50 towards UGT1A3; human liver microsomes, 15 μM chenodeoxycholic acid, mean ± SD of triplicate
pIC50: −log10 of the molar value.

{"columns": ["compound", "pIC50"],
 "data": [
  ["CC1=C(/C=C/C(C)=C/C=C/C(C)=C/C=C/C=C(C)/C=C/C=C(C)/C=C/C2=C(C)C[C@@H](O)CC2(C)C)C(C)(C)CCC1 [βC, β-cryptoxanthin]", 4.55],
  ["CC1=C(/C=C/C(C)=C/C=C/C(C)=C/C=C/C=C(C)/C=C/C=C(C)/C=C/C2=C(C)C(=O)CCC2(C)C)C(C)(C)CCC1=O [CA, canthaxanthin]", 4.39]
]}

----------
Biological target: UGT1A9 (Homo sapiens, UniProt O60656)
Sequence (O60656 26-530): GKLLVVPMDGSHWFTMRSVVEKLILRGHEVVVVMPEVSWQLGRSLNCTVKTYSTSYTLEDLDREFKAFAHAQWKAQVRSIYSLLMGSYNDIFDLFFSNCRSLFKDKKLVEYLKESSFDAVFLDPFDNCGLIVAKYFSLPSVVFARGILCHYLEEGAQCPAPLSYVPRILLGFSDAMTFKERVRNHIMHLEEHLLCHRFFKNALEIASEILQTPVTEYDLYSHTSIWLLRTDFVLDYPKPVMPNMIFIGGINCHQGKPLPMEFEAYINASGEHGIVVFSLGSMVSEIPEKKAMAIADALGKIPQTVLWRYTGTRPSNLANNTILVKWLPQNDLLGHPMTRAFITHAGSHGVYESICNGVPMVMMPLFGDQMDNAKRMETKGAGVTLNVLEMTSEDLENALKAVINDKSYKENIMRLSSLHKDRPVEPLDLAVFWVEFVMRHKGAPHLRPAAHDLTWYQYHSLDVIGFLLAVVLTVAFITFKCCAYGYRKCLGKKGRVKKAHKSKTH
Assay: Inhibition of UGT1A9 (propofol-O-glucuronidation) in human liver microsomes
pIC50: −log10 of the molar value.

{"columns": ["compound", "study system", "pIC50"],
 "data": [
  ["CC1=C(/C=C/C(C)=C/C=C/C(C)=C/C=C/C=C(C)/C=C/C=C(C)/C=C/C2=C(C)C[C@@H](O)CC2(C)C)C(C)(C)C[C@H](O)C1", "UGT1A9 (Homo sapiens, UniProt O60656)", "< 4.30"],
  ["O=C(O)c1cccnc1Nc1cccc(C(F)(F)F)c1 [Niflumic acid, niflumic acid, reference compound]", "UGT1A9 (Homo sapiens, UniProt O60656)", 6.41],
  ["CC1=C[C@H](O)CC(C)(C)[C@H]1/C=C/C(C)=C/C=C/C(C)=C/C=C/C=C(C)/C=C/C=C(C)/C=C/C1=C(C)C[C@@H](O)CC1(C)C", "UGT1A9 (Homo sapiens, UniProt O60656)", "< 4.30"],
  ["CC1=C(/C=C/C(C)=C/C=C/C(C)=C/C=C/C=C(C)/C=C/C=C(C)/C=C/C2=C(C)C(=O)[C@@H](O)CC2(C)C)C(C)(C)C[C@H](O)C1=O", "UGT1A9 (Homo sapiens, UniProt O60656)", "< 4.30"]
]}
